Biological target: Axl enzyme (Homo sapiens)
MEASURE_NAME: IC50 (nM)
Response body: numeric value in nM, unit text excluded.

stdin: Report IC50 under test system Axl enzyme (Homo sapiens) for COc1cc2nccc(Oc3ccc(NC(=O)c4cc5c(n(-c6ccccc6)c4=O)CCCC5=O)nc3)c2cc1OC .
stdout: 2.2

API: the following record is the query input.
stdin: Provide IC50, system Axl enzyme (Homo sapiens), entry O=C1CCCc2c1cc(C(=O)Nc1ccc(Oc3ccnc4cc(OCCCN5CCOCC5)ccc34)cn1)c(=O)n2-c1ccccc1
stdout: 4.4

* * *

Target: Ba/F3 Axl (Homo sapiens, UniProt P30530)
Sequence (P30530 1-894): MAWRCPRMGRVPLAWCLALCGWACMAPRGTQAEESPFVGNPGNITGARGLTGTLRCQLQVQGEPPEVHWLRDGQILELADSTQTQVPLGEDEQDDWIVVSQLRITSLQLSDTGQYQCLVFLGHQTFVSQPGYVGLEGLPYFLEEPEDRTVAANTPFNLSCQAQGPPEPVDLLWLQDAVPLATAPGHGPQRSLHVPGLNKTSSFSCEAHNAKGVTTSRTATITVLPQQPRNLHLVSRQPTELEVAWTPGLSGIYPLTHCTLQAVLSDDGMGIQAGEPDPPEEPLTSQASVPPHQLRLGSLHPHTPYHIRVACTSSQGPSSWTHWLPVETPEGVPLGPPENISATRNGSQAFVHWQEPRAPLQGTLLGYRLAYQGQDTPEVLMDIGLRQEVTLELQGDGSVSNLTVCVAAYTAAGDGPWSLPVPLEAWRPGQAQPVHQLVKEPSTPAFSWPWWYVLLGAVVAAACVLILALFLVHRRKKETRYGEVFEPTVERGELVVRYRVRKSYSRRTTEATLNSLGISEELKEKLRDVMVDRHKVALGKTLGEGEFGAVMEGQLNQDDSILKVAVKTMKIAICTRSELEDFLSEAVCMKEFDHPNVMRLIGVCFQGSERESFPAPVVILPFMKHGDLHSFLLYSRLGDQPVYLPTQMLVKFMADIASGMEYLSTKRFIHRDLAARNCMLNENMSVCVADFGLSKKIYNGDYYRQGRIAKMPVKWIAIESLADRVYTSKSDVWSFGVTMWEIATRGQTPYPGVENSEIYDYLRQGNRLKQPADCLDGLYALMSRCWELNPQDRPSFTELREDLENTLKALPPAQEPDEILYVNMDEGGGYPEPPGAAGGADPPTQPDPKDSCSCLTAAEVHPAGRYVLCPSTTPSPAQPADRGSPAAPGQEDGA
Experiment: Proliferation suppression rate using mouse pro-B cell line (Ba/F3 Axl) stably expressing Axl
Type: cell-based
Conditions: Ba/F3 Axl cells, 48 hours, CellTiter-Glo; read-out: IC50 value, proliferation suppression of Ba/F3 Axl
MEASURE_NAME: GI50 (nM)

// solved cases for GI50 follow
stdin: Identify GI50 associated with the molecule COc1cc2nccc(Oc3ccc(NC(=O)c4cc5c(n(-c6ccccc6)c4=O)CCCC5=O)nc3)c2cc1OC [Example 5]
stdout: 0.7

stdin: Quick one: give measured GI50 for COc1cc2nccc(Oc3ccc(NC(=O)c4cc5c(n(CC(C)(C)C)c4=O)CCCC5=O)nc3)c2cc1OC [Example 5(6)]
stdout: 7.8

stdin: Give a short answer stating reported GI50 for COc1cc2nccc(Oc3ccc(NC(=O)c4cc5c(n(-c6ccccc6)c4=O)CC(C)(C)CC5=O)nc3)c2cc1OC [Example 5(1)] .
stdout: 0.8

1 = COc1cc2nccc(Oc3ccc(NC(=O)c4cc5c(n(-c6ccccc6)c4=O)CCCC5=O)c(C)c3)c2cc1OC [Example 23(2)]
2 = COc1cc2nccc(Oc3ccc(NC(=O)c4nn(C)c5ccccc45)cc3F)c2cc1OC [Comparative compound A, reference compound]
stdin: 1 or 2 : whose GI50 is greater? Could you answer with the label of the item you picked?
stdout: 2
